# assay_info: Bioavailability in Sprague-Dawley rat at 5 mg/kg, ip measured upto 24 hrs by LC-MS/MS analysis
# Assay type: ADME, organism-based
# condition_details: in vivo

>  <smiles_record>
COc1ccc(C(=O)N2CCC3(CCN(C(=O)CN4CCC(COc5cnc(-c6cccc(Cn7nc(-c8cccc(C#N)c8)ccc7=O)c6)nc5)CC4)CC3)CC2)cc1N1CCC(=O)NC1=O

>  <bioavailability / %>
49.2

$$$$

---

# assay_info: Tmax in Sprague-Dawley rat at 2 mg/kg, iv measured upto 24 hrs by LC-MS/MS analysis
# Assay type: ADME, organism-based
# condition_details: in vivo

>  <smiles_record>
COc1ccc(C(=O)N2CCC3(CCN(C(=O)CN4CCC(COc5cnc(-c6cccc(Cn7nc(-c8cccc(C#N)c8)ccc7=O)c6)nc5)CC4)CC3)CC2)cc1N1CCC(=O)NC1=O

>  <unit_of_measurement>
min

>  <Tmax>
5.04

$$$$

---

# assay_info: Metabolic stability in rat liver microsome assessed as half life
# Assay type: ADME
# condition_details: liver microsomes
assay_endpoint: half-life (h)

>  <smiles_record>
COc1ccc(C(=O)N2CCC3(CCN(C(=O)CN4CCC(COc5cnc(-c6cccc(Cn7nc(-c8cccc(C#N)c8)ccc7=O)c6)nc5)CC4)CC3)CC2)cc1N1CCC(=O)NC1=O

>  <unit_of_measurement>
h

>  <assay_result>
2.22

$$$$

---

# assay_info: MRT (0 to t) in Sprague-Dawley rat at 2 mg/kg, iv measured upto 24 hrs by LC-MS/MS analysis
# Format: ADME, organism-based
# condition_details: in vivo

>  <smiles_record>
COc1ccc(C(=O)N2CCC3(CCN(C(=O)CN4CCC(COc5cnc(-c6cccc(Cn7nc(-c8cccc(C#N)c8)ccc7=O)c6)nc5)CC4)CC3)CC2)cc1N1CCC(=O)NC1=O

>  <MRT last at 24 h>
2.49 h

$$$$

---

# assay_system: Protein cereblon/Hepatocyte growth factor receptor (Homo sapiens, UniProt P08581+Q96SW2)
# Sequence (P08581 25-1390 limits assumed): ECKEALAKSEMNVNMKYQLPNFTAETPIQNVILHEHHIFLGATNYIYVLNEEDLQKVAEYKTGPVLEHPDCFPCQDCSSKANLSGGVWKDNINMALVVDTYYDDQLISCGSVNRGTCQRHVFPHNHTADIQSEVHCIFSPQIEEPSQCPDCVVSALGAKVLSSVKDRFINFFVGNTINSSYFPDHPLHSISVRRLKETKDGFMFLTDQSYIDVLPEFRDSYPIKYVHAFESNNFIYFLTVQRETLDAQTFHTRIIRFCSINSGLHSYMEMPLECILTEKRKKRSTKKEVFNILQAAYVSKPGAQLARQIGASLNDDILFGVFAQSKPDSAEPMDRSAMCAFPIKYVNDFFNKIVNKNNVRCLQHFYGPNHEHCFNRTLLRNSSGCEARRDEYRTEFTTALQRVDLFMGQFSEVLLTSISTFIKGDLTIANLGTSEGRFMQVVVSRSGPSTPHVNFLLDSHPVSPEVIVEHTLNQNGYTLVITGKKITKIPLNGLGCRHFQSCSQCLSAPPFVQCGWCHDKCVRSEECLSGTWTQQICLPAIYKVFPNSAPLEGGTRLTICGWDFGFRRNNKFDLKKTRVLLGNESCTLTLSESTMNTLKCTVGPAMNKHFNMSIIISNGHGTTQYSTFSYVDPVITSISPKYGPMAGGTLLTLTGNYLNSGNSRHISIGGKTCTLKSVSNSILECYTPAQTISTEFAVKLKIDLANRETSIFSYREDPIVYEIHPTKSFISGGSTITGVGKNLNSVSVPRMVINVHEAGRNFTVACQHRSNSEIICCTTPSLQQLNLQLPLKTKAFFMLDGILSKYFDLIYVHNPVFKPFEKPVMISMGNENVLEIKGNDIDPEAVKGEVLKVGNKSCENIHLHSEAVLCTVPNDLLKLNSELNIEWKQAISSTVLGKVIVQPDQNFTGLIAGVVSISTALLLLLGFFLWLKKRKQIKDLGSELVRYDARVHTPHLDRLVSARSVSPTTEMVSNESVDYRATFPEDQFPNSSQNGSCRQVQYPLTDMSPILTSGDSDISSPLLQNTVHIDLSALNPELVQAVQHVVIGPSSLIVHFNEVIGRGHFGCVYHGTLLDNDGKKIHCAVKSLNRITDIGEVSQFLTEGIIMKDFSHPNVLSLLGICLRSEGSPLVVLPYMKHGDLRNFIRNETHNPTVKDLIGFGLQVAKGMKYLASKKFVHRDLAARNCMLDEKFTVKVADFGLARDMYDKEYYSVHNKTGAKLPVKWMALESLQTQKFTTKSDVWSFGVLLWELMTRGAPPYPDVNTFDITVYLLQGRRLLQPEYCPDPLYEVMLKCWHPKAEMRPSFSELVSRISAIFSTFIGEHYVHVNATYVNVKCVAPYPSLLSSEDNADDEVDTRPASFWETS
# Sequence (Q96SW2 whole entry partner): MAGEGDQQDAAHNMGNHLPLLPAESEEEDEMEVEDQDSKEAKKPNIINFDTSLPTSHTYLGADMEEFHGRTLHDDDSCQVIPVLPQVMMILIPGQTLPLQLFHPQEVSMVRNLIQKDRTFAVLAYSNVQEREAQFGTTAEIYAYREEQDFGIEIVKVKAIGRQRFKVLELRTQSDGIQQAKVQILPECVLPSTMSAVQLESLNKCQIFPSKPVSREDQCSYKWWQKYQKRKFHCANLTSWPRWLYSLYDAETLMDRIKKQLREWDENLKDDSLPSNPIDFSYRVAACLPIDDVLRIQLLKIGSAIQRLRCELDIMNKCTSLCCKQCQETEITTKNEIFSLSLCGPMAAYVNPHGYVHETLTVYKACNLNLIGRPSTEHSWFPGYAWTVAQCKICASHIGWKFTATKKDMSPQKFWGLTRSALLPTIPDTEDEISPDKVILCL
# assay_info: PROTAC activity at c-Met/CRBN in human EBC-1 cells assessed as induction of c-Met degradation at 100 nM incubated for 24 hrs by Western blotting analysis relative to control
# Assay type: cell-based
The source made the active and inactive calls. The rule behind the calls is not given here.
assay_endpoint: Activity

>  <compound>
N#Cc1cccc(-c2ccc(=O)n(Cc3cccc(-c4ncc(OCC5CCN(C(=O)CCCCNC(=O)CC67C[C@H]8C[C@@H](C6)C[C@@H](C7)C8)CC5)cn4)c3)n2)c1

>  <assay_endpoint>
Activity

>  <assay_result>
2.8%

$$$$
>  <compound>
N#Cc1cccc(-c2ccc(=O)n(Cc3cccc(-c4ncc(OCC5CCN(C(=O)CCCCNC(=O)C6CC7C=CC6C7)CC5)cn4)c3)n2)c1 (stereo unspecified)

>  <assay_endpoint>
Activity

>  <assay_result>
12.4%

$$$$
>  <compound>
N#Cc1cccc(-c2ccc(=O)n(Cc3cccc(-c4ncc(OCC5CCN(C(=O)CCCCNC(=O)C(c6ccccc6)c6ccccc6)CC5)cn4)c3)n2)c1

>  <assay_endpoint>
Activity

>  <assay_result>
4.4%

$$$$
>  <compound>
COc1ccc(C(=O)NCCCCN2CCC(COc3cnc(-c4cccc(Cn5nc(-c6cccc(C#N)c6)ccc5=O)c4)nc3)CC2)cc1N1CCC(=O)NC1=O

>  <assay_endpoint>
Activity

>  <assay_result>
inactive

$$$$
>  <compound>
COc1ccc(C(=O)N2CC3CN(C(=O)CN4CCC(COc5cnc(-c6cccc(Cn7nc(-c8cccc(C#N)c8)ccc7=O)c6)nc5)CC4)CC3C2)cc1N1CCC(=O)NC1=O (stereo unspecified)

>  <assay_endpoint>
Activity

>  <assay_result>
inactive

$$$$
>  <compound>
COc1ccc(C(=O)N2CCC3(CCN(C(=O)CCCCN4CCC(COc5cnc(-c6cccc(Cn7nc(-c8cccc(C#N)c8)ccc7=O)c6)nc5)CC4)CC3)CC2)cc1N1CCC(=O)NC1=O

>  <assay_endpoint>
Activity

>  <assay_result>
83.7%

$$$$
>  <compound>
N#Cc1cccc(-c2ccc(=O)n(Cc3cccc(-c4ncc(OCC5CCN(C(=O)CCCCNC(=O)C(C6CCCCC6)C6CCCCC6)CC5)cn4)c3)n2)c1

>  <assay_endpoint>
Activity

>  <assay_result>
0.9%

$$$$
>  <compound>
COc1ccc(C(=O)N2CCC3(CCN(C(=O)CN4CCC(COc5cnc(-c6cccc(Cn7nc(-c8cccc(C#N)c8)ccc7=O)c6)nc5)CC4)C3)C2)cc1N1CCC(=O)NC1=O (stereo unspecified)

>  <assay_endpoint>
Activity

>  <assay_result>
54.1%

$$$$
>  <compound>
COc1ccc(C(=O)N2CCC3(CCN(C(=O)CCN4CCC(COc5cnc(-c6cccc(Cn7nc(-c8cccc(C#N)c8)ccc7=O)c6)nc5)CC4)CC3)CC2)cc1N1CCC(=O)NC1=O

>  <assay_endpoint>
Activity

>  <assay_result>
85.6%

$$$$
>  <compound>
COc1ccc(C(=O)N2CC3CC(CN(C(=O)CN4CCC(COc5cnc(-c6cccc(Cn7nc(-c8cccc(C#N)c8)ccc7=O)c6)nc5)CC4)C3)C2)cc1N1CCC(=O)NC1=O

>  <assay_endpoint>
Activity

>  <assay_result>
inactive

$$$$
>  <compound>
COc1ccc(C(=O)N2CCC3(CCN(C(=O)CCCCCN4CCC(COc5cnc(-c6cccc(Cn7nc(-c8cccc(C#N)c8)ccc7=O)c6)nc5)CC4)CC3)CC2)cc1N1CCC(=O)NC1=O

>  <assay_endpoint>
Activity

>  <assay_result>
79.1%

$$$$
